All figures here come from ChEMBL document CHEMBL5724914.

- condition-details: human gut metagenome, 24 h, 2 µM; also: call rule not given here
readout-name: Bacterial Biotransformation

compound="COc1cc2nc(N3CCN(C(=O)C4CCCO4)CC3)nc(N)c2cc1OC (stereo not drawn) [TERAZOSIN]" readout_name="Bacterial Biotransformation" recorded_measurement="Compound NOT metabolized"
compound="CC(=O)Oc1ccc(C(c2ccc(OC(C)=O)cc2)c2ccccn2)cc1 [BISACODYL]" readout_name="Bacterial Biotransformation" recorded_measurement="Compound metabolized"
compound="Br.COc1ccc2c(c1)[C@]13CCCC[C@@H]1[C@H](C2)N(C)CC3.O [DEXTROMETHORPHAN HYDROBROMIDE]" readout_name="Bacterial Biotransformation" recorded_measurement="Compound NOT metabolized"
compound="CCOc1ccccc1OCCN[C@H](C)Cc1ccc(OC)c(S(N)(=O)=O)c1.Cl [TAMSULOSIN HYDROCHLORIDE]" readout_name="Bacterial Biotransformation" recorded_measurement="Compound NOT metabolized"
compound="C[N+]12CCC(CC1)C(OC(=O)C(O)(c1ccccc1)c1ccccc1)C2.[Br-] (stereo not drawn) [CLIDINIUM BROMIDE]" readout_name="Bacterial Biotransformation" recorded_measurement="Compound metabolized"
compound="O=C1CN2Cc3c(ccc(Cl)c3Cl)N=C2N1 [ANAGRELIDE]" readout_name="Bacterial Biotransformation" recorded_measurement="Compound metabolized"
compound="CC1=C(CC(=O)O)c2cc(F)ccc2/C1=C\\c1ccc([S+](C)[O-])cc1 (stereo not drawn)" readout_name="Bacterial Biotransformation" recorded_measurement="Compound metabolized"
compound="Nc1nc(NC2CC2)c2ncn([C@H]3C=C[C@@H](CO)C3)c2n1.Nc1nc(NC2CC2)c2ncn([C@H]3C=C[C@@H](CO)C3)c2n1.O=S(=O)(O)O [ABACAVIR SULFATE]" readout_name="Bacterial Biotransformation" recorded_measurement="Compound metabolized"

---

- protocol-details: The drug is tested on WLS-077 corresponding to human gut metagenome with ENA study accession number: PRJEB37062 and ENA sample accession number: ERS12561750 for biotransformation under anaerobic condition. The drug concentrations were measured over 9 timepoints collected between 0 and 24 hours of incubation by liquid-chromatography-coupled mass spectrometry (LC–MS)
- condition-details: 2 µM
readout-name: Bacterial Biotransformation

molecule="COC(=O)C(c1ccccc1)C1CCCCN1 (configuration not stated) [METHYLPHENIDATE]" recorded_measurement="Compound NOT metabolized"
molecule="COCCCC/C(=N\\OCCN)c1ccc(C(F)(F)F)cc1.O=C(O)/C=C\\C(=O)O [FLUVOXAMINE MALEATE]" recorded_measurement="Compound NOT metabolized"
molecule=O=C([O-])C[C@H](O)C[C@H](O)/C=C/c1c(C2CC2)nc2ccccc2c1-c1ccc(F)cc1.O=C([O-])C[C@H](O)C[C@H](O)/C=C/c1c(C2CC2)nc2ccccc2c1-c1ccc(F)cc1.[Ca+2] recorded_measurement="Compound metabolized"
molecule="COc1cc2nc(N3CCN(C(=O)C4COc5ccccc5O4)CC3)nc(N)c2cc1OC.CS(=O)(=O)O (configuration not stated) [DOXAZOSIN MESYLATE]" recorded_measurement="Compound metabolized"
molecule=COc1ccc(/C=C/C(=O)Nc2ccccc2C(=O)O)cc1OC recorded_measurement="Compound metabolized"
molecule="COc1cc2nc(N3CCN(C(=O)C4CCCO4)CC3)nc(N)c2cc1OC (configuration not stated)" recorded_measurement="Compound NOT metabolized"
molecule="CC(C)[C@H]1CC[C@H](C(=O)N[C@H](Cc2ccccc2)C(=O)O)CC1 [NATEGLINIDE]" recorded_measurement="Compound metabolized"
molecule=CCCN(CCC)CCc1cccc2c1CC(=O)N2 recorded_measurement="Compound NOT metabolized"
molecule="CC(C)NCC(O)COc1ccc(CC(N)=O)cc1 (configuration not stated)" recorded_measurement="Compound metabolized"
molecule=CCS(=O)(=O)CCn1c([N+](=O)[O-])cnc1C recorded_measurement="Compound metabolized"
molecule="CC(=O)O[C@]1(C(C)=O)CC[C@H]2[C@@H]3C=C(C)C4=CC(=O)CC[C@]4(C)[C@H]3CC[C@@]21C [MEGESTROL ACETATE]" recorded_measurement="Compound metabolized"
molecule="Nc1nc(NC2CC2)c2ncn([C@H]3C=C[C@@H](CO)C3)c2n1.Nc1nc(NC2CC2)c2ncn([C@H]3C=C[C@@H](CO)C3)c2n1.O=S(=O)(O)O [ABACAVIR SULFATE]" recorded_measurement="Compound metabolized"
molecule="CC(=O)OCC(=O)[C@@]1(OC(C)=O)[C@@H](C)C[C@H]2[C@@H]3C[C@H](F)C4=CC(=O)C=C[C@]4(C)[C@@]3(F)[C@@H](O)C[C@@]21C [DIFLORASONE DIACETATE]" recorded_measurement="Compound metabolized"
molecule="CN(C)CCOC(C)(c1ccccc1)c1ccccn1.O=C(O)CCC(=O)O (configuration not stated) [DOXYLAMINE SUCCINATE]" recorded_measurement="Compound NOT metabolized"
molecule=O=C(O)c1cc(/N=N/c2ccc(S(=O)(=O)Nc3ccccn3)cc2)ccc1O recorded_measurement="Compound metabolized"
molecule=CC(=O)Oc1ccc(C(c2ccc(OC(C)=O)cc2)c2ccccn2)cc1 recorded_measurement="Compound metabolized"
molecule="CCN(CC)CCNC(=O)c1cc(S(C)(=O)=O)ccc1OC [TIAPRIDE]" recorded_measurement="Compound NOT metabolized"

---

- protocol-details: The drug is tested on Z-022 corresponding to mouse gut metagenome with ENA study accession number: PRJEB37062 and ENA sample accession number: ERS12561821 for biotransformation under anaerobic condition. The drug concentrations were measured over 9 timepoints collected between 0 and 24 hours of incubation by liquid-chromatography-coupled mass spectrometry (LC–MS)
- condition-details: 2 µM
readout-name: Bacterial Biotransformation

compound="CC(C)(C)NC[C@H](O)COc1nsnc1N1CCOCC1.O=C(O)/C=C\\C(=O)O [TIMOLOL MALEATE]" recorded_measurement="Compound NOT metabolized"
compound="COc1cc2nc(N3CCN(C(=O)C4COc5ccccc5O4)CC3)nc(N)c2cc1OC.CS(=O)(=O)O (centres undefined) [DOXAZOSIN MESYLATE]" recorded_measurement="Compound metabolized"
compound=COc1ccc(/C=C/C(=O)Nc2ccccc2C(=O)O)cc1OC recorded_measurement="Compound metabolized"
compound="CN(C)CCOC(C)(c1ccccc1)c1ccccn1.O=C(O)CCC(=O)O (centres undefined) [DOXYLAMINE SUCCINATE]" recorded_measurement="Compound NOT metabolized"

---

- condition-details: human gut metagenome, 24 h, 2 µM
readout-name: Bacterial Biotransformation

molecule="CC(C)(C)NCC(O)c1cc(Cl)c(N)c(Cl)c1 (configuration not stated)" readout_name="Bacterial Biotransformation" recorded_measurement="Compound NOT metabolized"
molecule=CNNCc1ccc(C(=O)NC(C)C)cc1 readout_name="Bacterial Biotransformation" recorded_measurement="Compound NOT metabolized"
molecule=O=C1CC2(CCCC2)CC(=O)N1CCCCN1CCN(c2ncccn2)CC1 readout_name="Bacterial Biotransformation" recorded_measurement="Compound NOT metabolized"
molecule="OC(c1cc(C(F)(F)F)nc2c(C(F)(F)F)cccc12)C1CCCCN1 (configuration not stated)" readout_name="Bacterial Biotransformation" recorded_measurement="Compound metabolized"
molecule=COc1ccc2c(c1)c(CC(=O)O)c(C)n2C(=O)c1ccc(Cl)cc1 readout_name="Bacterial Biotransformation" recorded_measurement="Compound metabolized"
molecule=CN1CCC(OC(c2ccccc2)c2ccccc2)CC1 readout_name="Bacterial Biotransformation" recorded_measurement="Compound metabolized"
molecule=CCOC(=O)[C@H](CCc1ccccc1)N[C@@H](C)C(=O)N1Cc2ccccc2C[C@H]1C(=O)O readout_name="Bacterial Biotransformation" recorded_measurement="Compound metabolized"
molecule=O=C([O-])C[C@H](O)C[C@H](O)/C=C/c1c(C2CC2)nc2ccccc2c1-c1ccc(F)cc1.O=C([O-])C[C@H](O)C[C@H](O)/C=C/c1c(C2CC2)nc2ccccc2c1-c1ccc(F)cc1.[Ca+2] readout_name="Bacterial Biotransformation" recorded_measurement="Compound metabolized"
molecule="CCOc1ccc2nc(S(N)(=O)=O)sc2c1 [ETHOXZOLAMIDE]" readout_name="Bacterial Biotransformation" recorded_measurement="Compound NOT metabolized"
molecule=CC(=O)OCC(CCn1cnc2cnc(N)nc21)COC(C)=O readout_name="Bacterial Biotransformation" recorded_measurement="Compound metabolized"
molecule="COC(=O)[C@H](c1ccccc1Cl)N1CCc2sccc2C1.O=S(=O)(O)O [CLOPIDOGREL BISULFATE]" readout_name="Bacterial Biotransformation" recorded_measurement="Compound metabolized"
molecule="CC(C)c1c(CN(C)C(C)Cc2ccccc2)n(C)n(-c2ccccc2)c1=O (configuration not stated)" readout_name="Bacterial Biotransformation" recorded_measurement="Compound metabolized"
molecule="COc1cc(NC(C)CCCN)c2ncccc2c1.O=P(O)(O)O.O=P(O)(O)O (configuration not stated) [PRIMAQUINE PHOSPHATE]" readout_name="Bacterial Biotransformation" recorded_measurement="Compound NOT metabolized"
molecule="C#C[C@]1(OC(C)=O)CC[C@H]2[C@@H]3CCC4=C[C@@H](OC(C)=O)CC[C@@H]4[C@H]3CC[C@@]21C [ETHYNODIOL DIACETATE]" readout_name="Bacterial Biotransformation" recorded_measurement="Compound metabolized"
molecule=COc1ccc([C@@H]2Sc3ccccc3N(CCN(C)C)C(=O)[C@@H]2OC(C)=O)cc1 readout_name="Bacterial Biotransformation" recorded_measurement="Compound metabolized"
molecule=COC1=C(OC)C(=O)C(CCCCCCCCCCO)=C(C)C1=O readout_name="Bacterial Biotransformation" recorded_measurement="Compound metabolized"
molecule="CC1Cc2ccccc2N1NC(=O)c1ccc(Cl)c(S(N)(=O)=O)c1 (configuration not stated) [INDAPAMIDE]" readout_name="Bacterial Biotransformation" recorded_measurement="Compound NOT metabolized"
molecule="O=C(NC(Cc1cc(=O)[nH]c2ccccc12)C(=O)O)c1ccc(Cl)cc1 (configuration not stated) [REBAMIPIDE]" readout_name="Bacterial Biotransformation" recorded_measurement="Compound NOT metabolized"
molecule="Nc1nc(NC2CC2)c2ncn([C@H]3C=C[C@@H](CO)C3)c2n1.Nc1nc(NC2CC2)c2ncn([C@H]3C=C[C@@H](CO)C3)c2n1.O=S(=O)(O)O [ABACAVIR SULFATE]" readout_name="Bacterial Biotransformation" recorded_measurement="Compound metabolized"
molecule=CN1[C@@H]2CC[C@H]1C[C@@H](OC(=O)c1c[nH]c3ccccc13)C2 readout_name="Bacterial Biotransformation" recorded_measurement="Compound NOT metabolized"
molecule=CCOC(=O)C1=C[C@]2(CC)CCCN3CCc4c(n1c1ccccc41)[C@@H]32 readout_name="Bacterial Biotransformation" recorded_measurement="Compound metabolized"
molecule="COc1cc2nc(N3CCN(C(=O)C4COc5ccccc5O4)CC3)nc(N)c2cc1OC.CS(=O)(=O)O (configuration not stated) [DOXAZOSIN MESYLATE]" readout_name="Bacterial Biotransformation" recorded_measurement="Compound NOT metabolized"
molecule="CC(C)(C)NC[C@H](O)COc1nsnc1N1CCOCC1.O=C(O)/C=C\\C(=O)O [TIMOLOL MALEATE]" readout_name="Bacterial Biotransformation" recorded_measurement="Compound NOT metabolized"
molecule=C=CC[C@@H]1/C=C(\C)C[C@H](C)C[C@H](OC)[C@H]2O[C@@](O)(C(=O)C(=O)N3CCCC[C@H]3C(=O)O[C@H](/C(C)=C/[C@@H]3CC[C@@H](O)[C@H](OC)C3)[C@H](C)[C@@H](O)CC1=O)[C@H](C)C[C@@H]2OC.O readout_name="Bacterial Biotransformation" recorded_measurement="Compound metabolized"
molecule="CN1CCC(=C2c3ccccc3CC(=O)c3sccc32)CC1.O=C(O)/C=C/C(=O)O [KETOTIFEN FUMARATE]" readout_name="Bacterial Biotransformation" recorded_measurement="Compound NOT metabolized"
molecule="Cc1cc(C)cc(OCC2CNC(=O)O2)c1 (configuration not stated)" readout_name="Bacterial Biotransformation" recorded_measurement="Compound metabolized"
molecule="C[N+]12CCC(CC1)C(OC(=O)C(O)(c1ccccc1)c1ccccc1)C2.[Br-] (configuration not stated) [CLIDINIUM BROMIDE]" readout_name="Bacterial Biotransformation" recorded_measurement="Compound NOT metabolized"
molecule=Cc1cc2c(s1)Nc1ccccc1N=C2N1CCN(C)CC1 readout_name="Bacterial Biotransformation" recorded_measurement="Compound NOT metabolized"
molecule="COc1cc2nc(N3CCN(C(=O)C4CCCO4)CC3)nc(N)c2cc1OC (configuration not stated)" readout_name="Bacterial Biotransformation" recorded_measurement="Compound NOT metabolized"
molecule="Br.COc1ccc2c(c1)[C@]13CCCC[C@@H]1[C@H](C2)N(C)CC3.O [DEXTROMETHORPHAN HYDROBROMIDE]" readout_name="Bacterial Biotransformation" recorded_measurement="Compound NOT metabolized"
molecule="CCN(CC)CCNC(=O)c1cc(S(C)(=O)=O)ccc1OC [TIAPRIDE]" readout_name="Bacterial Biotransformation" recorded_measurement="Compound NOT metabolized"
molecule="O=C1C(CC[S+]([O-])c2ccccc2)C(=O)N(c2ccccc2)N1c1ccccc1 (configuration not stated)" readout_name="Bacterial Biotransformation" recorded_measurement="Compound metabolized"
